- MEASURED ON: recombinant USP1 protein (Homo sapiens, UniProt O94782, DEL125-138/DEL229-408/DEL608-737)
- Sequence (O94782 with tags, fused parts or gaps DEL125-138/DEL229-408/DEL608-737): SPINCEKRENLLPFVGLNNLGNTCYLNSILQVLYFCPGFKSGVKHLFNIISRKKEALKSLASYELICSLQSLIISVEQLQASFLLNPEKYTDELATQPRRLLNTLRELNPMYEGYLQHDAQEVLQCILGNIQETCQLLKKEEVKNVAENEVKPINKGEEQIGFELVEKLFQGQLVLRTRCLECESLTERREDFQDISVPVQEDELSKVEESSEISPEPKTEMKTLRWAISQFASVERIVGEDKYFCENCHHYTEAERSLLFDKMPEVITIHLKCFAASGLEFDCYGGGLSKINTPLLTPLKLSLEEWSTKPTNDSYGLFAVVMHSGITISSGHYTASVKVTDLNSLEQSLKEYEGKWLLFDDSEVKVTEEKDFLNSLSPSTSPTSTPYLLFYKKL
- ASSAY EXPLANATION: Binding affinity to recombinant USP1 protein by differential scanning fluorimetry
- MEASUREMENT PARAMETERS: compound 100 µM; 0.03 mg/mL USP1 (Δ1-66, Δ125-138, Δ229-408, Δ608-737); Tm with compound minus Tm with DMSO; read-out: ΔTm (°C)
QUANTITY: ΔTm at 100 µM

What ΔTm at 100 µM value was documented for this molecule, `COc1ncnc(C2CC2)c1-c1ncc2cc(C(=O)N3CCC(N4CCOCC4)CC3)n(Cc3ccc(-c4nc(C(F)(F)F)cn4C(C)C)cc3)c2n1` ?
> 5 °C
